Assignment: determine reported activity at 6.25 µg/mL for the given compounds.
# Tested on: Rabbit cartilage explants
# Procedure details: Ex vivo glycosaminoglycans (GAG) release assay
# Format: cell-based
# Condition notes: Oryctolagus cuniculus, 24 h, 6.25 μg/ml; rabbit cartilage explants with rhIL-1α 5 ng/ml (=100)
Give the value in % but do not write % after it.

# input Rabbit cartilage explants / activity at 6.25 µg/mL / COc1cc(O)c(CC=C(C)C)c2c1C(=O)CC(c1ccc(O)cc1)O2 (stereo not shown) : value?
# output 97.8

# input Item: CC(C)=CCC12Oc3c(c(O)cc(O)c3C3C=C(C)CC(c4ccc(O)cc4O)C3C(=O)c3ccc(O)cc3O)C(=O)C1(O)Oc1cc(O)ccc12 (stereo not shown) Test system: Rabbit cartilage explants Read-out: activity at 6.25 µg/mL Value: ?
# output 101

# input Identify the measured activity at 6.25 µg/mL of COc1cc(O)c(CC=C(C)C)c(O)c1C(=O)/C=C/c1ccc(O)cc1 for Rabbit cartilage explants.
# output 77.4

# input Param readout = activity at 6.25 µg/mL; param system = Rabbit cartilage explants; param query = CC1(C)C=Cc2c(ccc3c2OC[C@@H](c2ccc(O)cc2O)C3)O1 ; response: value
# output 66.1

Data credit: patent US20230190852A1
